- Tested on: MIA PaCa-2
- experiment: Cytotoxicity against human MIAPaCa2 cells after 72 hrs by resazurin assay
- Type: functional, cell-based
- condition-info: Homo sapiens, MIA PaCa-2, 72 h
value-kind: pIC50
Numbers only, as −log10 of the molar value.

Check out these entries, answers already filled in.
compound=CC(C)=CCC1=C(O)[C@@]2(C(=O)c3ccccc3)C(=O)[C@](CC=C(C)C)(C[C@H](CC=C(C)C)C2(C)C)C1=O value_kind=pIC50 readout_value=5.62
compound="Nc1ccn([C@@H]2O[C@H](CO)[C@@H](O)C2(F)F)c(=O)n1 [GEMCITABINE]" value_kind=pIC50 readout_value=7.22
compound="CC(C)=CCC1=C(O)C2(C(=O)c3ccccc3)CC(CC=C(C)C)C(C)(C)C(CC=C(C)C)(C1=O)C2=O (single isomer, unassigned; (+))" value_kind=pIC50 readout_value=4.95
compound="CC(C)=CCC1=C(O)C2(CC=C(C)C)CC(CC=C(C)C)C(C)(C)C(C(=O)c3ccccc3)(C1=O)C2=O (single isomer, unassigned; (+))" value_kind=pIC50 readout_value=5.47

Then there is this compound:
Looking for the measured pIC50 of CC(C)=CC[C@H]1C[C@]2(CC=C(C)C)C(=O)[C@@](CC=C(C)C)(C(=O)C(C(=O)c3ccccc3)=C2O)C1(C)C (stereo in doubt; (+)-4) [6-EPI-CLUSIANONE] , can you help?
5.28

The values you see were collected from ChEMBL document CHEMBL2086230.
